Kindly state IC50 for each of the entries shown.
- Target: 5HT-Transporter (Homo sapiens, UniProt P31645)
- Construct: Human platelet membranes (Oceanix Biosciences Corporation, Hanover, Md., USA) were thawed; tissue Oceanix Biosciences Corporation; host or cells: human platelet membranes
- Sequence (P31645 whole entry): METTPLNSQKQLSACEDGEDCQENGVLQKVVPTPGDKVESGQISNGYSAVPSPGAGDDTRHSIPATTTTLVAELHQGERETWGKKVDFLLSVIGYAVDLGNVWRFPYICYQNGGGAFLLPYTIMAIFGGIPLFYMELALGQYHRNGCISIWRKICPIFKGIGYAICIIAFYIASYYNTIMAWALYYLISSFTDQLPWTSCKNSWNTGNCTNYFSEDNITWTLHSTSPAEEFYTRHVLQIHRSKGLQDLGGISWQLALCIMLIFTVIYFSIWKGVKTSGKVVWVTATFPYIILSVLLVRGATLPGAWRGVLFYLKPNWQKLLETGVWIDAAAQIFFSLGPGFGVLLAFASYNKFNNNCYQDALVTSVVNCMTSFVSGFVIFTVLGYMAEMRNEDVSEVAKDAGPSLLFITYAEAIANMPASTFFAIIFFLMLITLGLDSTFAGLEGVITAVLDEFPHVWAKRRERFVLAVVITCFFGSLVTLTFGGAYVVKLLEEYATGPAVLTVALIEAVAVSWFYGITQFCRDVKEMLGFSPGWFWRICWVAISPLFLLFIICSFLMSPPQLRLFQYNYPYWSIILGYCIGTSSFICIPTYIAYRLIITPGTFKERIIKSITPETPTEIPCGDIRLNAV
- Assay Remarks: Binding experiment for the 5HT-transporter ([3H]paroxetine, human platelet membranes)
- Condition Label: [3H]paroxetine 0.5 nM, read-out: h-5HTT pIC50 (converted)
Give your result in µM as a bare value.

Enquiry: Sample `O=c1c(NC2CCN(CCc3ccccc3)CC2)nccn1Cc1ccccc1Br` — what was its IC50?
Return: 5.01

Enquiry: Bench note: what IC50 did `O=c1c(N2CCC(c3ccccc3)CC2)nccn1Cc1ccc2ccccc2c1` show?
Return: 3.98

Enquiry: Fill in the blank: the reported IC50 of `NCc1ccc(Cn2ccnc(N3CCN(Cc4cccc(-c5ccccc5)c4)CC3)c2=O)cc1` is ____.
Return: 5.01

Enquiry: Query (compound): `O=c1c(N2CCN(Cc3cccc(-c4ccccc4)c3)CC2)nccn1Cc1ccc2ccccc2c1` ; field requested: IC50
Return: 5.01

Enquiry: Which value of IC50 has been reported for `O=C1c2ccccc2C(=O)N1CCCn1ccnc(N2CCN(Cc3cccc(-c4ccccc4)c3)CC2)c1=O` in the records?
Return: 0.794

Enquiry: What IC50 value was documented for this compound, `CCCn1ccnc(NC2CCN(CCCc3ccccc3)CC2)c1=O` ?
Return: 5.01

----------
- Target: 5HT-Transporter (Homo sapiens)
- Construct: Human platelet membranes (Oceanix Biosciences Corporation, Hanover, Md., USA) were thawed; tissue Oceanix Biosciences Corporation; host or cells: human platelet membranes
- Assay Remarks: Binding experiment for the 5HT-transporter ([3H]paroxetine, human platelet membranes)
- Condition Label: h-5HTT pIC50, [3H]paroxetine 0.5 nM
Assign IC50 to each entry below.
Respond numerically; units are µM and should not be typed.

Enquiry: So what does the record say about IC50 for `O=C1c2ccccc2C(=O)N1CCCn1ccnc(NC2CCN(CCCc3ccccc3)CC2)c1=O` ?
Return: 1

Enquiry: For the compound `O=c1c(NC2CCN(CCc3ccccc3)CC2)nccn1Cc1cccc(Br)c1` , what IC50 is on record?
Return: 5.01

----------
- Target: human adrenergic-α2A receptor (Homo sapiens)
- Construct: expressed in transfected cells; host or cells: CHO cells, stably transfected; membranes
- Sequence (P08913 whole entry): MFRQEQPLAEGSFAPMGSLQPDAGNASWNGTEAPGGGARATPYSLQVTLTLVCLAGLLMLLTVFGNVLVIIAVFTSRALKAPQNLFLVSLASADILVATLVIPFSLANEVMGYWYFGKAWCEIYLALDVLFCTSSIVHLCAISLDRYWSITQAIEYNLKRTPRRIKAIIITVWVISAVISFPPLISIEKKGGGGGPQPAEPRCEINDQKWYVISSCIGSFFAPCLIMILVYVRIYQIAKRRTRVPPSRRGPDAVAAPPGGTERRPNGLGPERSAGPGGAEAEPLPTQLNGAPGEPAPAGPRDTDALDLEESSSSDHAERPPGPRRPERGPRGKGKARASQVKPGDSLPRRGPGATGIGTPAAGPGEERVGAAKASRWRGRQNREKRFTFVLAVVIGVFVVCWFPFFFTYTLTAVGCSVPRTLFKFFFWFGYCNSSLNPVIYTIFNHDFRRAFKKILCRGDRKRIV
- Assay Remarks: Radioligand binding experiment for hα2A receptor ([3H]raulwolscine, CHO cell membranes)
- Condition Label: [3H]raulwolscine 1 nM, membranes of CHO cells transfected with human α2A receptor; read-out: h-α2A pIC50 (converted)
Hi there, I'd appreciate the recorded log10(IC50) for every entry that follows.
All values: log10 IC50 [µM].

Enquiry: Any idea what its log10(IC50) is? The compound is `CC(C)(C)OC(=O)NCCCn1ccnc(NC2CCN(CC(c3ccccc3)c3ccccc3)CC2)c1=O`
Return: 0.60

Enquiry: Record request: log10(IC50) value, item `CC(C)(C)OC(=O)NCc1ccc(Cn2ccnc(N3CCN(Cc4ccccc4)CC3)c2=O)cc1`
Return: -0.60

Enquiry: Reported log10(IC50), compound `O=c1c(NC2CCN(Cc3ccc(OCc4ccccc4)cc3)CC2)nccn1Cc1ccc(Br)cc1` : ____
Return: -0.20

Enquiry: Consider the compound shown here: `O=C1c2ccccc2C(=O)N1CCCn1ccnc(NC2CCN(CC(c3ccccc3)c3ccccc3)CC2)c1=O` What is its recorded log10(IC50)?
Return: 0.10

Enquiry: Item `O=c1c(NC2CCN(Cc3ccc(OCc4ccccc4)cc3)CC2)nccn1CCN1CCCCC1` has what recorded log10(IC50)?
Return: 0.20

Enquiry: Given the compound `O=c1c(NC2CCN(Cc3ccc(-c4ccccc4)cc3)CC2)nccn1Cc1ccncc1` , what is its reported log10(IC50)?
Return: 0.50

Enquiry: For the compound shown here, `CN(CCc1ccccc1)C1CCN(c2nccn(CCC(=O)c3ccccc3)c2=O)CC1` , give the reported log10(IC50).
Return: -0.50

Enquiry: Bench note: what log10(IC50) did `CC(C)(C)OC(=O)NCc1ccc(Cn2ccnc(N3CCN(CCc4ccccc4)CC3)c2=O)cc1` show?
Return: -0.10

Enquiry: Need log10(IC50) of `O=c1c(NC2CCN(CCCc3ccccc3)CC2)nccn1Cc1ccccc1Br` , thanks.
Return: 0.20

Enquiry: Return reported log10(IC50); argument: `O=c1c(N2CCN(Cc3cccc(-c4ccccc4)c3)CC2)nccn1Cc1ccco1`
Return: -1.10

Enquiry: Param item = `CC(C)(C)C(=O)Cn1ccnc(NC2CCN(CCCc3ccccc3)CC2)c1=O` ; retrieve measured log10(IC50).
Return: 0.10

Enquiry: Entry under review: `COC(=O)Cn1ccnc(NC2CCN(Cc3ccc(-c4ccccc4)cc3)CC2)c1=O` . Reported log10(IC50)?
Return: 0.10

Enquiry: Which log10(IC50) is reported for this compound? `O=c1c(NC2CCN(CCc3ccccc3)CC2)nccn1CCN1CCCCC1`
Return: 0.20

Enquiry: Tell me the measured log10(IC50) of `O=c1c(N2CCN(CCc3ccccc3)CC2)nccn1Cc1ccc(Cl)s1` , please.
Return: -0.10

Enquiry: Request the reported log10(IC50) associated with `O=C1c2ccccc2C(=O)N1CCCn1ccnc(NC2CCN(CCc3ccccc3)CC2)c1=O`
Return: 0.60

Enquiry: Query (compound): `O=c1c(N2CCN(CCc3ccccc3)CC2)nccn1Cc1ccc2ccccc2c1` ; field requested: log10(IC50)
Return: -0.30

Enquiry: Consider the compound shown here: `O=c1c(NC2CCN(Cc3ccc(OCc4ccccc4)cc3)CC2)nccn1Cc1cccc(Br)c1` What is its recorded log10(IC50)?
Return: -0.20

Enquiry: Sample `O=C(Cn1ccnc(N2CCN(CCc3ccccc3)CC2)c1=O)c1ccccc1` — what was its log10(IC50)?
Return: 0.30

Enquiry: Please give the measured log10(IC50) for this compound: O=c1c(NC2CCN(Cc3ccc(-c4ccccc4)cc3)CC2)nccn1CC1CCCCO1 (stereo not drawn)
Return: 0.30

Enquiry: What does the data say about its log10(IC50)? Entry: `O=c1c(NC2CCN(CCCc3ccccc3)CC2)nccn1Cc1cccc(Br)c1`
Return: 0.30

Enquiry: Any idea what log10(IC50) was measured for `O=c1c(NC2CCN(CC(c3ccccc3)c3ccccc3)CC2)nccn1Cc1cccc(Br)c1` ?
Return: 0.10

Enquiry: Item under review: `O=c1c(N2CCN(CCc3ccccc3)CC2)nccn1C/C=C/c1ccccc1` . Reported log10(IC50)?
Return: 0.00

Enquiry: Form field: reported log10(IC50) of `O=c1c(NC2CCN(CCCc3ccccc3)CC2)nccn1Cc1ccc(Br)cc1`
Return: 0.20

Enquiry: Look up log10(IC50): `CC(C)(C)OC(=O)NCCCn1ccnc(N2CCN(Cc3ccc(-c4ccccc4)cc3)CC2)c1=O`
Return: 0.10

Enquiry: Item under review: `O=C1c2ccccc2C(=O)N1CCCn1ccnc(NC2CCN(Cc3ccc(OCc4ccccc4)cc3)CC2)c1=O` . Reported log10(IC50)?
Return: -0.10

Enquiry: Any idea what its log10(IC50) is? The compound is `O=c1c(NC2CCN(Cc3ccc(-c4ccccc4)cc3)CC2)nccn1Cc1cccc(Br)c1`
Return: 0.00

Enquiry: Give the measured log10(IC50) of `COc1ccc(-c2nnc(Cn3ccnc(N4CCN(Cc5cccc(-c6ccccc6)c5)CC4)c3=O)o2)cc1` .
Return: -0.30

Enquiry: Name the recorded log10(IC50) for `O=C1c2ccccc2C(=O)N1CCCn1ccnc(N2CCN(Cc3ccc(-c4ccccc4)cc3)CC2)c1=O` .
Return: 0.00

Enquiry: Requested read-out: log10(IC50). Entry: `C=CCn1ccnc(N2CCN(CCc3ccccc3)CC2)c1=O`
Return: 0.40

Enquiry: Reported log10(IC50) for `C=CCn1ccnc(N2CCN(Cc3cccc(-c4ccccc4)c3)CC2)c1=O` : what is it?
Return: -0.70

Enquiry: GET /values?readout=log10(IC50)&item= `O=c1c(N2CCN(Cc3ccccc3)CC2)nccn1C/C=C/c1ccccc1`
Return: -0.50

Enquiry: // lookup log10(IC50) for `CCCn1ccnc(NC2CCN(CCCc3ccccc3)CC2)c1=O`
Return: -0.10

Enquiry: // returns reported log10(IC50) for input `O=c1c(N2CCC(c3ccccc3)CC2)nccn1Cc1ccc2ccccc2c1`
Return: -0.30

----------
- Target: human adrenergic-α2C receptor (Homo sapiens, UniProt P18825)
- Construct: expressed in transfected cells; host or cells: CHO cells, stably transfected; membranes
- Sequence (P18825 whole entry): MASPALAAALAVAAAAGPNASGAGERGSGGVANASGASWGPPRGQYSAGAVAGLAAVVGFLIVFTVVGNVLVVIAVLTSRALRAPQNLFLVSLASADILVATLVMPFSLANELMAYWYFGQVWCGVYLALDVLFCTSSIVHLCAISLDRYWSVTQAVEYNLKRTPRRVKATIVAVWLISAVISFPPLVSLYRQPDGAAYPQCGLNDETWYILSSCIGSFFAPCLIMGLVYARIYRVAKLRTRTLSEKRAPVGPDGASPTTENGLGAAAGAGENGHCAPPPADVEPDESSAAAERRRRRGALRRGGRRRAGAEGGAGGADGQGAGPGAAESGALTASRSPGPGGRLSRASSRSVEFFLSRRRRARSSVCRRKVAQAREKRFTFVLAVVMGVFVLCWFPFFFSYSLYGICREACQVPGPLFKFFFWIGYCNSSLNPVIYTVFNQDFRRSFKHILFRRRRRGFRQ
- Assay Remarks: Radioligand binding experiment for α2C-adrenoceptor ([3H]raulwolscine, CHO cell membranes)
- Condition Label: [3H]raulwolscine 1 nM, membranes of CHO cells transfected with human α2C receptor; read-out: h-α2C pIC50 (converted)
Measurement Type: IC50 (µM)
Field format: number, assumed µM, no unit text.

Enquiry: Reported IC50 for human adrenergic-α2C receptor (Homo sapiens, UniProt P18825), given `O=C1c2ccccc2C(=O)N1CCCn1ccnc(N2CCN(Cc3cccc(-c4ccccc4)c3)CC2)c1=O` ?
Return: 0.794

Enquiry: Give the reported IC50 for `O=c1c(N2CCN(Cc3cccc(-c4ccccc4)c3)CC2)nccn1CC=Cc1ccccc1` (system: human adrenergic-α2C receptor (Homo sapiens, UniProt P18825)).
Return: 0.794

Enquiry: Query IC50 on human adrenergic-α2C receptor (Homo sapiens, UniProt P18825) for `COc1ccc(-c2nnc(Cn3ccnc(N4CCN(CCc5ccccc5)CC4)c3=O)o2)cc1`
Return: 0.501

Enquiry: What measured IC50 is associated with `CC(C)(C)OC(=O)NCc1ccc(Cn2ccnc(N3CCN(Cc4cccc(-c5ccccc5)c4)CC3)c2=O)cc1` on human adrenergic-α2C receptor (Homo sapiens, UniProt P18825)?
Return: 0.251
